Entry source: patent EP0083750A1

Parameter MIC, tested on Trichophyton mentagr., listed per item.
Metric: MIC (µg/mL)

>>> df
                                   molecule  metric  reading_unit  observed_result
0  C=CCC(C(O)C(C)(C)Oc1ccc(Cl)cc1Cl)n1cncn1 (stereo not drawn)     MIC         µg/mL                2

(1) CC(C)(CSc1ccc(Cl)cc1)C(O)Cn1ccnc1 (stereo not drawn)
(2) CCOC(=O)c1ccc(OC(C)(C)C(O)C(Cc2ccc(Cl)cc2Cl)n2cncn2)cc1 (stereo not drawn)
(3) CC(C)(Oc1ccc(Cl)cc1Cl)C(O)C(Cc1ccccc1)n1cncn1 (stereo not drawn)
(Q) Ordering: ascending MIC. API: response body holds the labels in the requested order.
(A) 3, 2, 1
(3: 2 µg/mL, 2: 4 µg/mL, 1: 8 µg/mL)

====

MIC values by entry
- Test system: Candida albicans

Answered cases to consult:
>>> print(df.to_string())
                                   molecule  metric  observed_result
0  CC(C)(CSc1ccc(Cl)cc1)C(O)C(Cc1ccc(F)cc1)n1cncn1 (stereo not drawn) [Beispiel 40]     MIC        < 1 µg/mL
1  CC(C)(Oc1ccc(Cl)cc1Cl)C(O)C(Cc1ccc(Cl)cc1)n1cncn1 (stereo not drawn) [Beispiel 1]     MIC         16 µg/mL
2  OC(Cn1cncn1)c1ccc(-c2ccc(Cl)cc2)cc1 (stereo not drawn) [(B), reference compound]     MIC       > 64 µg/mL
3  CCCCC(C(O)C(C)(C)Oc1ccc(Cl)cc1Cl)n1cncn1 (stereo not drawn) [Beispiel 51]     MIC          2 µg/mL
4  CC(C)(Oc1ccc(Cl)cc1Cl)C(O)C(Cc1ccc(Cl)cc1Cl)n1cncn1 (stereo not drawn) [Beispiel 25]     MIC       > 64 µg/mL

(Q) Return value of MIC for input CC(C)(Oc1ccc(Cl)cc1)C(O)C(Cc1c(Cl)cccc1Cl)n1cncn1 (stereo not drawn) [Beispiel 29] , no commentary.
(A) < 1 µg/mL

(Q) Return value of MIC for input C=CCC(C(O)C(C)(C)Oc1ccc(Cl)cc1Cl)n1cncn1 (stereo not drawn) [Beispiel 53] , no commentary.
(A) 4 µg/mL

(Q) Return value of MIC for input CC(C)(CSc1ccc(Cl)cc1)C(O)C(Cc1ccc(Cl)cc1)n1cncn1 (stereo not drawn) [Beispiel 38] , no commentary.
(A) < 1 µg/mL

(Q) Return value of MIC for input CC(C)(COc1ccc(Br)cc1)C(O)C(CCOc1ccc(Cl)cc1Cl)n1cncn1 (stereo not drawn) [Beispiel 45] , no commentary.
(A) < 1 µg/mL

====

- System: Trichophyton mentagr.
MIC values by entry

Answered cases to consult:
>>> df
                                   compound  observed_result
0  COCC(C)(C)C(O)C(Cc1ccc(Cl)cc1Cl)n1cncn1 (stereo not shown) [Beispiel 7]          8 µg/mL
1  CC(C)(COc1ccc(Cl)cc1)C(O)C(Cc1ccc(Cl)cc1Cl)n1cncn1 (stereo not shown) [Beispiel 11]        < 1 µg/mL
2  CC(C)(Oc1ccc(Cl)cc1)C(O)C(CC1CCCCC1)n1cncn1 (stereo not shown) [Beispiel 31]          2 µg/mL
3  CC(C)(COc1ccc(Cl)cc1)C(O)Cn1cncn1 (stereo not shown) [Beispiel 4]         16 µg/mL
4  CC(C)(COc1ccc(Br)cc1)C(O)C(CC1CCCCC1)n1cncn1 (stereo not shown) [Beispiel 35]        < 1 µg/mL

(Q) Quote MIC with test system Trichophyton mentagr. for CC(C)(CSc1ccc(Cl)cc1)C(O)C(Cc1ccc(F)cc1)n1cncn1 (stereo not shown) [Beispiel 40]
(A) < 1 µg/mL

====

Parameter MIC, tested on Candida albicans, listed per item.
Metric: MIC (µg/mL)

Answered cases to consult:
In [3]: df
Out[3]:
                                   molecule  target_or_test_system  reading_unit  observed_result
0  CCCCC(C(O)C(C)(C)Oc1ccc(C(=O)OCC)cc1)n1cncn1 (stereo not shown)       Candida albicans         µg/mL                8
1  C=CCCC(C(O)C(C)(C)COc1ccc(Cl)c(Cl)c1)n1cncn1 (stereo not shown)       Candida albicans         µg/mL                2
2  CC(C)(CSc1ccccc1)C(O)C(Cc1ccc(Cl)cc1)n1cncn1 (stereo not shown)       Candida albicans         µg/mL                4
3  CC(C)(CSc1ccc(Cl)cc1)C(O)Cn1ccnc1 (stereo not shown)       Candida albicans         µg/mL                2

(I) COCC(C)(C)C(O)C(Cc1ccc(Cl)cc1Cl)n1cncn1 (stereo not shown)
(II) CC(C)(COc1ccc(Cl)cc1)C(O)Cn1cncn1 (stereo not shown)
(Q) Given the listed records, identify the one among I and II with higher MIC. Provide the label of your selected option as the answer.
(A) II
(II: 32 µg/mL, I: 8 µg/mL)

(a) CCCCC(C(O)C(C)(C)COc1ccc(-c2ccccc2)cc1)n1cncn1 (stereo not shown)
(b) CC(C)(COc1ccc(Br)cc1)C(O)C(CC1CCCCC1)n1cncn1 (stereo not shown)
(Q) Given the listed records, identify the one among a and b with higher MIC. Provide the label of your selected option as the answer.
(A) b

(A) COCC(C)(C)C(O)C(Cc1ccc(Cl)cc1)n1cncn1 (stereo not shown)
(B) CCOCC(C)(C)C(O)C(Cc1ccc(Cl)cc1)n1cncn1 (stereo not shown)
(Q) Lower MIC: A or B ? Provide the label of your selected option as the answer.
(A) B
(B: 2 µg/mL, A: 8 µg/mL)

====

Parameter MIC, tested on Trichophyton mentagr., listed per item.

Answered cases to consult:
In [3]: df
Out[3]:
                                   compound  observed_result
0  CC(C)(COc1ccc(-c2ccccc2)cc1)C(O)Cn1ccnc1 (stereo not drawn) [Beispiel 96]        < 1 µg/mL
1  CCOCC(C)(C)C(O)C(Cc1ccc(Cl)c(Cl)c1)n1cncn1 (stereo not drawn) [Beispiel 86]          2 µg/mL
2  CCOCC(C)(C)C(O)C(Cc1ccc(Cl)cc1)n1cncn1 (stereo not drawn) [Beispiel 42]        < 1 µg/mL
3  CCCCC(C(O)C(C)(C)Oc1ccc(Cl)cc1)n1cncn1 (stereo not drawn) [Beispiel 52]          2 µg/mL
4  CC(C)(Oc1ccc(Cl)cc1)C(O)C(Cc1ccc(Cl)cc1Cl)n1cncn1 (stereo not drawn) [Beispiel 27]        < 1 µg/mL
5  CC(C)(CSc1ccc(Cl)cc1)C(O)C(Cc1ccc(Cl)cc1Cl)n1cncn1 (stereo not drawn) [Beispiel 39]        < 1 µg/mL
6  CC(C)(CSc1ccccc1)C(O)C(Cc1ccc(Cl)cc1)n1cncn1 (stereo not drawn) [Beispiel 37]        < 1 µg/mL
7  CCCCC(C(O)C(C)(C)CSc1ccc(Cl)cc1)n1cncn1 (stereo not drawn) [Beispiel 41]        < 1 µg/mL

Then this compound:
(Q) Return value of MIC for input CC(C)(Cc1ccc(Cl)cc1)C(O)C(Cc1ccccc1)n1ccnc1 (stereo not drawn) [Beispiel 128] , no commentary.
(A) < 1 µg/mL

====

- Tested on: Trichophyton mentagr.
- Protocol: Antimycotic in-vitro activity, serial dilution test (MIC)
- Assay type: cell-based
- Particulars: 96 h, Reihenverdünnungstest, 5 x 10^4 Keimen/ml Substrat, Sabourand's milieu d'epreuve, 20°C, 96 Stunden, read-out: MHK-Werte in γ/ml Nährmedium, Trichophyton mentagr.
- Method: Versuchsbeschreibung: • Die in-vitro-Prüfungen wurden im Reihenverdünnungstest mit Keiminokula von durchschnittlich 5 x 10^4 Keimen/ml Substrat durchgeführt. Als Nährmedium dienten • a) für Dermatophyten und Schimmelpilze: Sabourand's milieu d'epreuve • b) für Hefen: • Fleischextrakt-Traubenzucker-Bouillon. Die Bebrütungstemperatur betrug 20°C, die Bebrütungsdauer lag bei 24 bis 96 Stunden bei Hefen und 96 Stunden bei Dermatophyten und Schimmelpilzen.
Metric: MIC

Answered cases to consult:
>>> df
                                   compound  observed_result
0  CC(C)(Cc1ccccc1)C(O)C(Cc1ccc(Cl)cc1Cl)n1cncn1 (stereo not shown) [Beispiel 83]        < 1 µg/mL
1  COc1cccc(CC(C(O)C(C)(C)COc2ccc(Cl)cc2)n2cncn2)c1 (stereo not shown) [Beispiel 87]        < 1 µg/mL
2  C=CCC(C(O)C(C)(C)Oc1ccc(Cl)cc1)n1cncn1 (stereo not shown) [Beispiel 56]          8 µg/mL
3  CCC(C(O)C(C)(C)Oc1ccc(Cl)cc1)n1cncn1 (stereo not shown) [Beispiel 57]          8 µg/mL
4  C=CCC(C(O)C(C)(C)Oc1ccc(Cl)cc1Cl)n1ccnc1 (stereo not shown) [Beispiel 66]          4 µg/mL
5  CC(C)(COc1ccc(Br)cc1)C(O)C(CCOc1ccc(Cl)cc1Cl)n1cncn1 (stereo not shown) [Beispiel 45]        < 1 µg/mL
6  CC(C(O)c1ccc(Cl)cc1)n1cncn1 (stereo not shown) [(A), reference compound]       > 64 µg/mL
7  CC(C)(CSc1ccc(Cl)cc1)C(O)C(Cc1ccc(Cl)cc1)n1cncn1 (stereo not shown) [Beispiel 38]        < 1 µg/mL
8  CC(C)(COc1ccc(Cl)cc1)C(O)C(CC1CCCCC1)n1ccnc1 (stereo not shown) [Beispiel 20]        < 1 µg/mL

Then this compound:
(Q) Return value of MIC for input CCCCC(C(O)C(C)(C)COc1ccc(-c2ccccc2)cc1)n1cncn1 (stereo not shown) [Beispiel 100] , no commentary.
(A) < 1 µg/mL
